TEST_TARGET: PEG-3 (UniProt Q6IN02)
Sequence (Q6IN02 whole entry, looked up): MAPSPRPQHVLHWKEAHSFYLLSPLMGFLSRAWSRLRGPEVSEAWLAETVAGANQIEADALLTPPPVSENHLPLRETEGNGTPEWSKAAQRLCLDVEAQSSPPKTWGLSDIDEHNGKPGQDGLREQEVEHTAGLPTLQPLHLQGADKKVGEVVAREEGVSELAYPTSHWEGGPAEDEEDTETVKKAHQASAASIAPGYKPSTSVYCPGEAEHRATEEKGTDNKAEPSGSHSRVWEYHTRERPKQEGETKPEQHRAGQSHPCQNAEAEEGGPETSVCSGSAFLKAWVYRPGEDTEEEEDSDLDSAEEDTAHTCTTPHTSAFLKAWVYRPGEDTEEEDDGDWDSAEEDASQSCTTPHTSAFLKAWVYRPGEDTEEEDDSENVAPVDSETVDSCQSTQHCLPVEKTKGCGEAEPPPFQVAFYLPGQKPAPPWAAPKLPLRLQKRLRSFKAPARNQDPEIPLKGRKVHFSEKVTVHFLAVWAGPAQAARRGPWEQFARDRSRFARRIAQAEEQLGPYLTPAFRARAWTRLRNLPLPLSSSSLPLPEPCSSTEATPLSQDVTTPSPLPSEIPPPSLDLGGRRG
PROCEDURE_DETAILS: Peg3 promoter luciferase inhibitors, potency, dose response, cell-based, HeLa, CREF/GAPDH counter-screen panel (AID 624167)
EXPERIMENTAL_PARAMETERS: CREF/GAPDH counter-screens; HeLa PEG-Prom luciferase reporter, overnight, run 1, dose range 1, at 100 µM (top of the series) unless noted
inhibition values, listed per item
Your answer is read as %, so omit the unit and give the number.

COc1ccc(Nc2nc(-c3ccccc3)nc3ccccc23)cc1S(=O)(=O)N1CCOCC1 ... 61.7
Cc1nn(C(C)(C)C)c(C)c1/C=N/OC(=O)Nc1ccc(Cl)cc1 ... 98.8
C=CCn1c(C)cc(C2=NNC(=NCC)SC2)c1C ... 99.4
CCCOC(=O)c1cccc(Nc2nc(-c3cccnc3)nc3ccccc23)c1 ... 99
Cc1nc(C)c(C(=O)N/N=C/c2cc(Br)ccc2O)s1 ... 101

[ask] Under PEG-3 (UniProt Q6IN02): inhibition value of `O=C(NC1CCCCC1)Sc1ccc(Cl)cc1` ?
[reply] 102
